B1: Pistol ribozyme (parent)
chain: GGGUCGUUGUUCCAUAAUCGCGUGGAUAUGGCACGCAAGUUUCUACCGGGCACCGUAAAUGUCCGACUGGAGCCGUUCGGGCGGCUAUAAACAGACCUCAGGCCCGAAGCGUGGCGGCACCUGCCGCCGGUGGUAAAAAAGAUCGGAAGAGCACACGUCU

- Variants of: B1
- method: aptazyme ON/OFF ratio, guanine; higher = stronger switching; co-transcriptional cleavage with and without guanine
measuredMetric: aptazyme ON/OFF ratio
Would you mind answering with just the numeric figure?

variantKey: U7G U8C U10A C12A C13A
measuredMetric: aptazyme ON/OFF ratio
numericValue: 1.24
--
variantKey: U7A G9U U11G C12G C13A
measuredMetric: aptazyme ON/OFF ratio
numericValue: 1.26
--
variantKey: U7G U8C G9C U11G C12A C13U
measuredMetric: aptazyme ON/OFF ratio
numericValue: 1.23
--
variantKey: U7G U10G U11G C12U C13G
measuredMetric: aptazyme ON/OFF ratio
numericValue: 1.17
--
variantKey: U7G U8A G9A U10A C13A
measuredMetric: aptazyme ON/OFF ratio
numericValue: 1.19
--
variantKey: U7A U8A G9U U10G U11G C12G C13G
measuredMetric: aptazyme ON/OFF ratio
numericValue: 1.16
--
variantKey: U8C G9C U10G U11A C12G
measuredMetric: aptazyme ON/OFF ratio
numericValue: 1.26
--
variantKey: U7A U8C G9C U10C U11G C12G C13U
measuredMetric: aptazyme ON/OFF ratio
numericValue: 1.08
--
variantKey: U8A U10G C12G C13G
measuredMetric: aptazyme ON/OFF ratio
numericValue: 1.12
--
variantKey: U7G U8C G9U U10C U11G C12U C13A
measuredMetric: aptazyme ON/OFF ratio
numericValue: 1.34

# evaluate next
Record U7C G9C U10C U11C C12U C13A , field aptazyme ON/OFF ratio: 1.03
